Target: Metabotropic glutamate receptor 1 (Homo sapiens, UniProt Q13255)
Sequence (Q13255 whole entry): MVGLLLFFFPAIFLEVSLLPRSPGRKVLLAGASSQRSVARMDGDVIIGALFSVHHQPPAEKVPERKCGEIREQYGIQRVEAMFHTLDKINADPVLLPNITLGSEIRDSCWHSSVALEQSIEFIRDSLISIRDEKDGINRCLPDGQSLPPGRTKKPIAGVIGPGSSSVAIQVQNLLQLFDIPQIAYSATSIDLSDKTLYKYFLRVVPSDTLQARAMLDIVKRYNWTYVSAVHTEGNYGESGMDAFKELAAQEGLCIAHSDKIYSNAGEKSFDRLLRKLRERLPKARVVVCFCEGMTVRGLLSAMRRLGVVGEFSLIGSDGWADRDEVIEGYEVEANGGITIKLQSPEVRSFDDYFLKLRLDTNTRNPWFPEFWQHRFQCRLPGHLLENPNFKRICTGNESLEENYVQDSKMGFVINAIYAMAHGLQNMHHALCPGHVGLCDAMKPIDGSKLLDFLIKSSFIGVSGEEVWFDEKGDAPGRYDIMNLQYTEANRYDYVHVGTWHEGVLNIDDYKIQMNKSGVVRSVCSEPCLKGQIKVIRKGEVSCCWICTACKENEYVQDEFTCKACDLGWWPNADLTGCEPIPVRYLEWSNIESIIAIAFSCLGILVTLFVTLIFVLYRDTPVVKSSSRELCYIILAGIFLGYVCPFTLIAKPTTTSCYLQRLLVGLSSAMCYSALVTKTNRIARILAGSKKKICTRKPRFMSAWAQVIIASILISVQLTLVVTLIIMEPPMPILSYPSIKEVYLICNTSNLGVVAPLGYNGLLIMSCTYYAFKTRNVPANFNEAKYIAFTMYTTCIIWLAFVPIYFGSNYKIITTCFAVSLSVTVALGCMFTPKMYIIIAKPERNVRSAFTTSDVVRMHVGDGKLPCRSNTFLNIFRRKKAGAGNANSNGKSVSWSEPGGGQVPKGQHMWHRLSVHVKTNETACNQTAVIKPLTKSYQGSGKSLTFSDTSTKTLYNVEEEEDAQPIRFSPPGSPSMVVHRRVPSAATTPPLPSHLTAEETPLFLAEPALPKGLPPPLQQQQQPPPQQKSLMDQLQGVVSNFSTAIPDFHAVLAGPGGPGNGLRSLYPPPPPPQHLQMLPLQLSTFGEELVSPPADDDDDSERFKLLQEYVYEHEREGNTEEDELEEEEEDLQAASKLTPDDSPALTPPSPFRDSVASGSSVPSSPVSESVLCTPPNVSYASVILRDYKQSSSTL
Assay: Ability to inhibit mGluR1-alpha-mediated PI (phospho inositol) hydrolysis was determined at BHK cells at 100 Micro M Concentration
Format: functional, cell-based, Mesocricetus auratus
measuredProperty: pIC50
The value called pIC50 is obtained by taking minus log10 of the concentration in mol/L.

Record request: pIC50 value, item CC(N)(C(=O)O)c1ccc(C(=O)O)cc1 (centres undefined) 3.81

Quick one: NC(C(=O)O)c1ccc(C(=O)O)c(O)c1 (centres undefined) 4.40

// repeat for NC(C(=O)O)c1ccc(C(=O)O)cc1 (centres undefined) and report 4.19

Try NC1(C(=O)O)CCc2cc(C(=O)O)ccc21 (centres undefined) next. 5.15

----------
Molecular target: Metabotropic glutamate receptor 2 (Homo sapiens)
Sequence (Q14416 whole entry): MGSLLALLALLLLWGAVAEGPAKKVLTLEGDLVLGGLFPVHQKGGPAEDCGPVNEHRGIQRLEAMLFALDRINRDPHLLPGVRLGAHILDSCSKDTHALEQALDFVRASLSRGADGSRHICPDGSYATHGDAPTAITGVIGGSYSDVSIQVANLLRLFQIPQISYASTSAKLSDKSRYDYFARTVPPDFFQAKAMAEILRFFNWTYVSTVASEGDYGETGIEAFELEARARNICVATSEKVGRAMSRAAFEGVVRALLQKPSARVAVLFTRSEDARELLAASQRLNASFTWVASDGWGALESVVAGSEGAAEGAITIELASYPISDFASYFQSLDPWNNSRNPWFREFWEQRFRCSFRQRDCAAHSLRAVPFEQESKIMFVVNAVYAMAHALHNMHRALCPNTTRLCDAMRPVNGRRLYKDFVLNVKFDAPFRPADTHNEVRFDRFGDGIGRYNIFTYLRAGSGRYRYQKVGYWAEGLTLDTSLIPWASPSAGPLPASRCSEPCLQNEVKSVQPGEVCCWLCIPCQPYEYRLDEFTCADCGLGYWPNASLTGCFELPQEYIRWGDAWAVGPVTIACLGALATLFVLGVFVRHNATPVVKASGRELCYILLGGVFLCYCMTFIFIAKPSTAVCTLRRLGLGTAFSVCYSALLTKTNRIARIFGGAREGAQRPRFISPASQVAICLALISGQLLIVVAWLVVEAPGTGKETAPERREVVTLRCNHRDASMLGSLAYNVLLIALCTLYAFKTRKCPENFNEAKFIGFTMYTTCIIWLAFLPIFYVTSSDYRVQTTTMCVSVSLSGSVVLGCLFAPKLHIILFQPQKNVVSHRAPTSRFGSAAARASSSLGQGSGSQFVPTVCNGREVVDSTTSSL
Assay: Ability to inhibit mGluR2-alpha induced cAMP formation was determined at BHK cells at 100 Micro M Concentration
Type: functional, cell-based, Mesocricetus auratus
Task for the reader: assign each of the following molecules its reported IC50.

// lookup IC50 for CC(N)(C(=O)O)c1ccc(C(=O)O)cc1 (stereo not drawn) 340 µM

Proceed to NC(C(=O)O)c1ccc(C(=O)O)cc1 (stereo not drawn) 577 µM

Now give it for NC(C(=O)O)c1ccc(C(=O)O)c(O)c1 (stereo not drawn) too. 48 µM
